assay-comment: Multiple ascending dose
Type: in vivo, human
reported-conditions: human, plasma, oral, 300 ug, Cmax,ss, 300 µg QD, steady state, single subject
value-kind: Cmax (µg/mL)
Return type: number; implicit unit µg/mL.

Qu. Return reported Cmax. Input compound: "O=C(O)COC[C@H]1CC[C@H](COC(=O)N(c2ccccc2)c2ccc(Cl)cc2)CC1"
Ans. 0.0176

###

assay-comment: Single ascending dose
Assay type: in vivo, human
reported-conditions: both, human, plasma, po, 50 ug
value-kind: Cmax (ng/mL)
Provide only the numeric value, understood in ng/mL.

Qu. Please give measured Cmax of the following entry: "O=C(O)COC[C@H]1CC[C@H](COC(=O)N(c2ccccc2)c2ccc(Cl)cc2)CC1"
Ans. 1.49

###

assay-comment: Multiple ascending dose
Assay type: in vivo, human
reported-conditions: human, plasma, oral, 30 ug, Tmax,ss, 30 µg QD, steady state, n = 3, median (min – max)
value-kind: Tmax
Answer shape: numeric part, then the unit.

Qu. Return Tmax for the following molecule: O=C(O)COC[C@H]1CC[C@H](COC(=O)N(c2ccccc2)c2ccc(Cl)cc2)CC1 [ralinepag]
Ans. 1 h

###

assay-comment: Multiple ascending dose
Format: in vivo, human
reported-conditions: human, plasma, oral, 300 ug, Tmax,ss, 300 µg QD, steady state, single subject
value-kind: Tmax (h)
Express it in h; write the number only.

Qu. Give Tmax for the following compound: "O=C(O)COC[C@H]1CC[C@H](COC(=O)N(c2ccccc2)c2ccc(Cl)cc2)CC1"
Ans. 4

###

assay-comment: Single ascending dose
Format: in vivo, human
reported-conditions: both, human, plasma, po, 100 ug
value-kind: Cmax
Report as: number unit

Qu. Look up and report measured Cmax for this entry: O=C(O)COC[C@H]1CC[C@H](COC(=O)N(c2ccccc2)c2ccc(Cl)cc2)CC1 [ralinepag]
Ans. 2.65 ng/mL

###

assay-comment: Multiple ascending dose
Assay type: in vivo, human
reported-conditions: human, plasma, oral, 30 ug, Cmax,ss, 30 µg BID, steady state, n = 10, mean (SD)
value-kind: Cmax (ng/mL)
Answer in ng/mL, number only, no unit symbol.

Qu. Supply Cmax value. Item: O=C(O)COC[C@H]1CC[C@H](COC(=O)N(c2ccccc2)c2ccc(Cl)cc2)CC1 [ralinepag]
Ans. 2.12

###

assay-comment: Single ascending dose
Type: in vivo, human
reported-conditions: both, human, plasma, po, 200 ug
value-kind: Tmax
Remember to quote the unit after the number.

Qu. Check the records and state Tmax for "O=C(O)COC[C@H]1CC[C@H](COC(=O)N(c2ccccc2)c2ccc(Cl)cc2)CC1"
Ans. 1.25 h

###

assay-comment: Multiple ascending dose
Format: in vivo, human
reported-conditions: human, plasma, oral, 10 ug, Cmax,ss, 10 µg BID, steady state, n = 20, mean (SD)
value-kind: Cmax

Qu. Output measured Cmax for this item: "O=C(O)COC[C@H]1CC[C@H](COC(=O)N(c2ccccc2)c2ccc(Cl)cc2)CC1"
Ans. 0.86 ng/mL

###

assay-comment: Single ascending dose
Format: in vivo, human
reported-conditions: both, human, plasma, po, 100 ug
value-kind: Tmax (h)
Number only, in h; omit the unit.

Qu. Dear colleague, please send me the reported Tmax for O=C(O)COC[C@H]1CC[C@H](COC(=O)N(c2ccccc2)c2ccc(Cl)cc2)CC1 [ralinepag] when you can.
Ans. 1.5
